Hi there, I'd appreciate the recorded residual activity for every entry that follows.
# Tgt: Ubiquitin thioesterase OTUB1 (Homo sapiens)
# Sequence (Q96FW1 whole entry, the tested form may be a part): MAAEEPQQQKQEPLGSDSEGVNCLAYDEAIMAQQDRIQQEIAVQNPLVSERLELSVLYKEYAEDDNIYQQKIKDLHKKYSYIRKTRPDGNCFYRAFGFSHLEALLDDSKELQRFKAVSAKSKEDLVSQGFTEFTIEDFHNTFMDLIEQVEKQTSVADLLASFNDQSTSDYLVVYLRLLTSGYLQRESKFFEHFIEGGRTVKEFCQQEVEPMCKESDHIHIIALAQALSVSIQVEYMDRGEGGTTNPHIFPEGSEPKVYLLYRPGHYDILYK
# Measurement Notes: Inhibition of N-terminal His-6 tagged OTUB1 (40 to 271 residues) (unknown origin) expressed in Escherichia coli BL21 (DE3) cells at 10 nM using Ub-Rho measured after 0.5 to 3 hrs by fluorescence based Plate reader method relative to control
# Condition: time 0.5-3 hrs, values are per cent of control
One number for each entry, in %.

Smiles Str	residual activity [%]
Cc1cccc(Cl)c1-c1nc2c(o1)C(=O)c1ccccc1C2=O	55.4
CN1CC[C@@H](Oc2cc(-c3nc4c(o3)C(=O)c3ccccc3C4=O)ccc2Cl)C1	23.6
O=C1c2ccccc2C(=O)c2oc(-c3ccccc3[N+](=O)[O-])nc21	47.2
COc1cc(F)cc(-c2nc3c(o2)C(=O)c2ccccc2C3=O)c1	62.8
O=C1c2ccccc2C(=O)c2oc(-c3ccc(C(F)(F)F)cc3)nc21	60.3
COc1cccc(-c2nc3c(o2)C(=O)c2ccccc2C3=O)c1	61.7
COc1cc(F)cc(-c2nc3c([nH]2)C(=O)c2ccccc2C3=O)c1	84.8
COc1c(Cl)ccc(Cl)c1-c1nc2c(o1)C(=O)c1ccccc1C2=O	69.4

Please state residual activity for every molecule in the list that follows.
1. COc1ccc(F)c(-c2nc3c(o2)C(=O)c2ccccc2C3=O)c1
2. O=C1c2ccccc2C(=O)c2oc(-c3ccc(F)cc3F)nc21
3. O=C1c2ccccc2C(=O)c2oc(-c3ccc(Cl)cc3)nc21

1: 75; 2: 44.5; 3: 61.3

* * *

# Tgt: Ubiquitin thioesterase OTUB1 (Homo sapiens)
# Measurement Notes: Inhibition of N-terminal His-6 tagged OTUB1 (40 to 271 residues) (unknown origin) expressed in Escherichia coli BL21 (DE3) cells at 100 nM using Ub-Rho measured after 0.5 to 3 hrs by fluorescence based Plate reader method relative to control
# Condition: time 0.5-3 hrs, values are per cent of control
Measurement Name: residual activity (%)
Answers are plain numbers, in %.

Smiles Str	Uom	residual activity
O=C1c2ccccc2C(=O)c2oc(-c3cccc(OCCN4CCOCC4)c3)nc21	%	47.2
COc1cc(-c2nc3c(o2)C(=O)c2ccccc2C3=O)ccc1C	%	59.9
O=C1c2ccccc2C(=O)c2oc(-c3ccc(F)cc3)nc21	%	24.6
O=C1c2ccccc2C(=O)c2oc(-c3ccc(F)cc3Cl)nc21	%	23.5
O=C1c2ccccc2C(=O)c2oc(-c3cccc(F)c3F)nc21	%	19.8
COc1cc(F)cc(-c2nc3c(o2)C(=O)c2ccccc2C3=O)c1	%	25.1

Please supply residual activity for each of the following items, keeping them in order.
1. COc1cc(OC)cc(-c2nc3c(o2)C(=O)c2ccccc2C3=O)c1
2. CN(C)CCOc1cccc(-c2nc3c(o2)C(=O)c2ccccc2C3=O)c1
3. O=C1c2ccccc2C(=O)c2oc(-c3ccc(Cl)cc3)nc21
4. Cc1ccc(F)c(-c2nc3c(o2)C(=O)c2ccccc2C3=O)c1F

[48.1, 28.7, 34.2, 22.7]

List reported residual activity for each of these compounds:
1. CN1CC[C@@H](Oc2ccc(F)c(-c3nc4c(o3)C(=O)c3ccccc3C4=O)c2Cl)C1
2. CN1CCN(CCOc2cc(Cl)cc(-c3nc4c(o3)C(=O)c3ccccc3C4=O)c2)CC1
3. CN1CCN(CCOc2ccc(F)c(-c3nc4c(o3)C(=O)c3ccccc3C4=O)c2Cl)CC1
4. Cc1cccc(-c2nc3c(o2)C(=O)c2ccccc2C3=O)c1
5. CN1CC[C@@H](Oc2cc(-c3nc4c(o3)C(=O)c3ccccc3C4=O)ccc2Cl)C1
6. O=C1c2ccccc2C(=O)c2oc(-c3cccc(C(F)(F)F)c3)nc21

1: 7.3; 2: 36.3; 3: 8.7; 4: 49.2; 5: 12.8; 6: 13.2
